- Measured Target: T1, hIL2Rg-Fc (SinoBiological cat#10555) (human, UniProt P31785 23-254, limits assumed)
- T1 construct: Bought Fc fusion (SinoBiological cat#10555); P31785 is printed for hCD132 in the background; also called human IL2Rg-Fc; not shown: Fc of the bought fusion protein
- T1 sequence (looked up): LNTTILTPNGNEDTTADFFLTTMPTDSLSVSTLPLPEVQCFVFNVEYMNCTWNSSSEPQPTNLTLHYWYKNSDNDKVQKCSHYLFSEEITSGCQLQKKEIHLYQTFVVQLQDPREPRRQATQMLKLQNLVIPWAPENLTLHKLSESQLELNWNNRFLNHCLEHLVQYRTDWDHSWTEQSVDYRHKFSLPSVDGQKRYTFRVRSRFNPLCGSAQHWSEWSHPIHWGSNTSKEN
- Assay Remarks: SPR (Biacore T200), Fc-fused ligand captured on chip, dual VHH as analyte, 1:1 Langmuir fit
Each entry below carries its reported kon.
The answer is to be given in M⁻¹ s⁻¹; state only the numeric part.

Illustrative cases are given below, each with its answer.
Binder	kon [M⁻¹ s⁻¹]
DR444(DR236-DR234) (bispecific antibody, Anti-hIL10Ra/hIL2Rg dual VHH with ASH6 handle; also called E8) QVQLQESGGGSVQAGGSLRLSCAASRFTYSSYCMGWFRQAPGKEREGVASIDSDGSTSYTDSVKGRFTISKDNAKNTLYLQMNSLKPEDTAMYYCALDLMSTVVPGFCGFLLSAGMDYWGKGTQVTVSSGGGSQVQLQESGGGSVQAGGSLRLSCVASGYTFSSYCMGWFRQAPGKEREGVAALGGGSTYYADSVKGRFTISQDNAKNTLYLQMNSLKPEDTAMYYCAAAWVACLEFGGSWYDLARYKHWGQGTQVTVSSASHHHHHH	380000
DR465(DR240-DR231) (bispecific antibody, Anti-hIL10Ra/hIL2Rg dual VHH with ASH6 handle; also called H1) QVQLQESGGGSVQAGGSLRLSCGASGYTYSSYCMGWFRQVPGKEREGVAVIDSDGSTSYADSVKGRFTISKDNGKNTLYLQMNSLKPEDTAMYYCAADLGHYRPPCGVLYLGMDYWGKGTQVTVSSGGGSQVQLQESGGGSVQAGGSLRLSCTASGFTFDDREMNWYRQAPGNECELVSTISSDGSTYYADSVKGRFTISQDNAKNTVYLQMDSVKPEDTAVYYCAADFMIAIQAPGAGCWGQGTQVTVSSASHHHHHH	250000
DR449(DR237-DR233) (bispecific antibody, Anti-hIL10Ra/hIL2Rg dual VHH with ASH6 handle; also called F3) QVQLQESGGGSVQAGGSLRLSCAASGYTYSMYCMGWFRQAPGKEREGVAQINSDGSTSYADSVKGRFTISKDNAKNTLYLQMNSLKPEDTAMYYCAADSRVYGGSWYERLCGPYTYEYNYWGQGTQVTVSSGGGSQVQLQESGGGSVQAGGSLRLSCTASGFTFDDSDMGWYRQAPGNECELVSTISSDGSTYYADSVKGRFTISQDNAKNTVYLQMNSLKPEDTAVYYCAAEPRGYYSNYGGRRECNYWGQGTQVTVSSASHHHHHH	220000
DR392(DR229-DR236) (bispecific antibody, Anti-hIL10Ra/hIL2Rg dual VHH with ASH6 handle; also called A7) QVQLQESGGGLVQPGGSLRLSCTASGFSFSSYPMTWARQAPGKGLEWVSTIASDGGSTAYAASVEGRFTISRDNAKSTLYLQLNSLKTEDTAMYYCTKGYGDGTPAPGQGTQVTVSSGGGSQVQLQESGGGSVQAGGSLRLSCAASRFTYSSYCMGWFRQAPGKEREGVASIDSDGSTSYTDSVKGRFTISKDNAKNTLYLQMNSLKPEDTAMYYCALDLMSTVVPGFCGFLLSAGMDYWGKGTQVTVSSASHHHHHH	1.7e+06
DR471(DR241-DR231) (bispecific antibody, Anti-hIL10Ra/hIL2Rg dual VHH with ASH6 handle; also called G3) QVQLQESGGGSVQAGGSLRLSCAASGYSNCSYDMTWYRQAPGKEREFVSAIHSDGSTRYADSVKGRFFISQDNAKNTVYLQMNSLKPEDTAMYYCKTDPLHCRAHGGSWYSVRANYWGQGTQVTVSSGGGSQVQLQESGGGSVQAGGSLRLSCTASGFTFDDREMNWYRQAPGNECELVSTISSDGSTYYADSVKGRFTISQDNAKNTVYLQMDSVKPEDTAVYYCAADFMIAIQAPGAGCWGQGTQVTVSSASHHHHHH	340000
DR441(DR236-DR231) (bispecific antibody, Anti-hIL10Ra/hIL2Rg dual VHH with ASH6 handle; also called F1) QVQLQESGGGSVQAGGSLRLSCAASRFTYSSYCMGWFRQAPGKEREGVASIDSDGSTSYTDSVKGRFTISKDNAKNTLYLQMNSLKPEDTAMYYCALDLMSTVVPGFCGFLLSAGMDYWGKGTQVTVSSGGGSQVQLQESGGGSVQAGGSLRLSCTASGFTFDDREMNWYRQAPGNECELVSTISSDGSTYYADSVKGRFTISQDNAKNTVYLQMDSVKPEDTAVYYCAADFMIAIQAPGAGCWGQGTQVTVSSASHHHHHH	470000
DR468(DR240-DR234) (bispecific antibody, Anti-hIL10Ra/hIL2Rg dual VHH with ASH6 handle; also called G8) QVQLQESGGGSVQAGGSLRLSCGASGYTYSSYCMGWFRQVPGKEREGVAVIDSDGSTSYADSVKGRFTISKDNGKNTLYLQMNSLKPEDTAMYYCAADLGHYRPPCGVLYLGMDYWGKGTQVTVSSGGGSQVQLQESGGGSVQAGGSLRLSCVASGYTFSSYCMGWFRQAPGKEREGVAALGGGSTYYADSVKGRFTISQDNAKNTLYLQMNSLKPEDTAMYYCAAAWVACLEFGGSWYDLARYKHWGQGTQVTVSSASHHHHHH	170000
DR438(DR235-DR234) (bispecific antibody, Anti-hIL10Ra/hIL2Rg dual VHH with ASH6 handle; also called D12) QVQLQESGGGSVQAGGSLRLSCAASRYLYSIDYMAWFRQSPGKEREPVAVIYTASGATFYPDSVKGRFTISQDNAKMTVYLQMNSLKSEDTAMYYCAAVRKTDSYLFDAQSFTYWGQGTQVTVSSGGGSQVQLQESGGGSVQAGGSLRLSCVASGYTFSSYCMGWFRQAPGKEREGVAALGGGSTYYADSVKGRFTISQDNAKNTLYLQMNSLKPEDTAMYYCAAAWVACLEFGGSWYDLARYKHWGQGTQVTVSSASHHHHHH	390000

Exercise: Using the record for DR474(DR241-DR234) (bispecific antibody, Anti-hIL10Ra/hIL2Rg dual VHH with ASH6 handle; also called H9) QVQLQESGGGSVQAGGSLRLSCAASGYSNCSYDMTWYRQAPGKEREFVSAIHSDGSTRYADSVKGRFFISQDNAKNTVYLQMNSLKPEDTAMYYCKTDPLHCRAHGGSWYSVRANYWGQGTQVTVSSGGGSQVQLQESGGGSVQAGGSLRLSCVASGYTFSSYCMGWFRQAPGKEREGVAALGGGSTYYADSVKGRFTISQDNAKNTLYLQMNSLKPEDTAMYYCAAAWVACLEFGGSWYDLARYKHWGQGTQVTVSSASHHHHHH , state its measured kon.
Key: 310000
